# Test system: Rattus norvegicus
# assay_remarks: Antiamnesic activity against scopolamine-induced dementia in Wistar rat assessed as basal latency period to reach shock free zone at 0.5 mg/kg, po
# Assay type: functional
Provide the reported Time of each item.
Could you give me the number in s? Just the number is fine.

Give Time (Rattus norvegicus) of the following compound: CN1CCC=C(C2CN(C(=O)c3ccc(Cl)cc3)CCO2)C1 (centres undefined)
7

Please answer likewise for CN1CCC=C(C2CN(C(=O)c3ccccc3)CCO2)C1 (centres undefined)
10

Please answer likewise for Cc1ccc(C(=O)N2CCOC(C3=CCCN(C)C3)C2)cc1 (centres undefined)
8

Please answer likewise for COC(=O)C1=CCCN(C)C1
10

Please answer likewise for CN1CCC=C(C2CN(C(=O)c3cccc([N+](=O)[O-])c3)CCO2)C1 (centres undefined)
10

Please answer likewise for CN1CCC=C(C2CN(C(=O)c3cc(Cl)ccc3Cl)CCO2)C1 (centres undefined)
11

Please answer likewise for CN1CCC=C(C2CN(C(=O)c3ccc([N+](=O)[O-])cc3)CCO2)C1 (centres undefined)
10

Please answer likewise for CN1CCC=C(C2CN(C(=O)c3ccccc3[N+](=O)[O-])CCO2)C1 (centres undefined)
10

Please answer likewise for CN1CCC=C(C2CN(C(=O)c3ccc(C(C)(C)C)cc3)CCO2)C1 (centres undefined)
11

====

# study_target: Muscarinic acetylcholine receptor M1 (Rattus norvegicus)
# Sequence (P08482 whole entry): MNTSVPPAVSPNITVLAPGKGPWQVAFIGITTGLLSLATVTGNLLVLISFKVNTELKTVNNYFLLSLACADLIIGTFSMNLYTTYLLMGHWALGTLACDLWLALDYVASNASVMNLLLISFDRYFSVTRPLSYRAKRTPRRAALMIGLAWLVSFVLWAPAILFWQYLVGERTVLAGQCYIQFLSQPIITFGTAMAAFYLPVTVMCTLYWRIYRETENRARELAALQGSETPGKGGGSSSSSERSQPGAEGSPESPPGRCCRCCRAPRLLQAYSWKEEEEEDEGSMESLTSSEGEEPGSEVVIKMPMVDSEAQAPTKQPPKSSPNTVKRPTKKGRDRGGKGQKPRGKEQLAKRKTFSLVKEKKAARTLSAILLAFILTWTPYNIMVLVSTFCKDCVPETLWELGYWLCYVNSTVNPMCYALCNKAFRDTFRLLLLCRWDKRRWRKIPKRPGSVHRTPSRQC
property: pIC50
On this scale, pIC50 is minus log10 of a concentration expressed in M (mol/L).

Reported pIC50 for CN1CCC=C(C2CN(C(=O)c3ccccc3[N+](=O)[O-])CCO2)C1 (stereo unspecified) : what is it?
3.21

====

# Tested on: Rattus norvegicus
# assay_remarks: Cholinergic toxicity in po dosed Wistar rat assessed as occurrence of defecation after 1 week
# Type: organism-based
# condition_details: in vivo, 168 h
property: Activity

Below: 7 compounds and their reported Activity.
Reported Activity for CN1CCC=C(C2CN(C(=O)c3cccc([N+](=O)[O-])c3)CCO2)C1 (stereo not drawn) : what is it?
Non-toxic

Please answer likewise for Cc1ccc(C(=O)N2CCOC(C3=CCCN(C)C3)C2)cc1 (stereo not drawn)
Non-toxic

Please answer likewise for CN1CCC=C(C2CN(C(=O)c3ccc(C(C)(C)C)cc3)CCO2)C1 (stereo not drawn)
Non-toxic

Please answer likewise for CN1CCC=C(C2CN(C(=O)c3ccc([N+](=O)[O-])cc3)CCO2)C1 (stereo not drawn)
Non-toxic

Please answer likewise for CN1CCC=C(C2CN(C(=O)c3cc(Cl)ccc3Cl)CCO2)C1 (stereo not drawn)
Non-toxic

Please answer likewise for CN1CCC=C(C2CN(C(=O)c3ccc(Cl)cc3)CCO2)C1 (stereo not drawn)
Non-toxic

Please answer likewise for CN1CCC=C(C2CN(C(=O)c3ccccc3[N+](=O)[O-])CCO2)C1 (stereo not drawn)
Non-toxic

--- query ---
Reported Activity for CN1CCC=C(C2CN(C(=O)c3ccccc3)CCO2)C1 (stereo not drawn) : what is it?
Non-toxic
